Value source: patent US5912251A

target: human dihydrofolate Reductase (Homo sapiens, UniProt P00374)
Sequence (P00374 whole entry): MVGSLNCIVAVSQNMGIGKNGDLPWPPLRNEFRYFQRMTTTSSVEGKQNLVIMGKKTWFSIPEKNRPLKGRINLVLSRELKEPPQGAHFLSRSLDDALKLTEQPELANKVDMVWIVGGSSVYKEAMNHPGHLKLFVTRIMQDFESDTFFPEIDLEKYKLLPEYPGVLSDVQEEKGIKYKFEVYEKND
Property Label: IC50 (nM)
Express your answer in nM, writing the number without its unit.

stdin: Missing value: IC50, human dihydrofolate Reductase (Homo sapiens, UniProt P00374), entry C=C(CC(NC(=O)c1ccc(CCc2ccc3nc(N)nc(N)c3c2)cc1)C(=O)O)C(=O)O (stereo not shown) . Fill in?
stdout: 66
